B1: Vacuolar protein sorting-associated protein 33A (Homo sapiens), Q96AX1 (parent)
chain: MAAHLSYGRVNLNVLREAVRRELREFLDKCAGSKAIVWDEYLTGPFGLIAQYSLLKEHEVEKMFTLKGNRLPAADVKNIIFFVRPRLELMDIIAENVLSEDRRGPTRDFHILFVPRRSLLCEQRLKDLGVLGSFIHREEYSLDLIPFDGDLLSMESEGAFKECYLEGDQTSLYHAAKGLMTLQALYGTIPQIFGKGECARQVANMMIRMKREFTGSQNSIFPVFDNLLLLDRNVDLLTPLATQLTYEGLIDEIYGIQNSYVKLPPEKFAPKKQGDGGKDLPTEAKKLQLNSAEELYAEIRDKNFNAVGSVLSKKAKIISAAFEERHNAKTVGEIKQFVSQLPHMQAARGSLANHTSIAELIKDVTTSEDFFDKLTVEQEFMSGIDTDKVNNYIEDCIAQKHSLIKVLRLVCLQSVCNSGLKQKVLDYYKREILQTYGYEHILTLHNLEKAGLLKPQTGGRNNYPTIRKTLRLWMDDVNEQNPTDISYVYSGYAPLSVRLAQLLSRPGWRSIEEVLRILPGPHFEERQPLPTGLQKKRQPGENRVTLIFFLGGVTFAEIAALRFLSQLEDGGTEYVIATTKLMNGTSWIEALMEKPF
partner: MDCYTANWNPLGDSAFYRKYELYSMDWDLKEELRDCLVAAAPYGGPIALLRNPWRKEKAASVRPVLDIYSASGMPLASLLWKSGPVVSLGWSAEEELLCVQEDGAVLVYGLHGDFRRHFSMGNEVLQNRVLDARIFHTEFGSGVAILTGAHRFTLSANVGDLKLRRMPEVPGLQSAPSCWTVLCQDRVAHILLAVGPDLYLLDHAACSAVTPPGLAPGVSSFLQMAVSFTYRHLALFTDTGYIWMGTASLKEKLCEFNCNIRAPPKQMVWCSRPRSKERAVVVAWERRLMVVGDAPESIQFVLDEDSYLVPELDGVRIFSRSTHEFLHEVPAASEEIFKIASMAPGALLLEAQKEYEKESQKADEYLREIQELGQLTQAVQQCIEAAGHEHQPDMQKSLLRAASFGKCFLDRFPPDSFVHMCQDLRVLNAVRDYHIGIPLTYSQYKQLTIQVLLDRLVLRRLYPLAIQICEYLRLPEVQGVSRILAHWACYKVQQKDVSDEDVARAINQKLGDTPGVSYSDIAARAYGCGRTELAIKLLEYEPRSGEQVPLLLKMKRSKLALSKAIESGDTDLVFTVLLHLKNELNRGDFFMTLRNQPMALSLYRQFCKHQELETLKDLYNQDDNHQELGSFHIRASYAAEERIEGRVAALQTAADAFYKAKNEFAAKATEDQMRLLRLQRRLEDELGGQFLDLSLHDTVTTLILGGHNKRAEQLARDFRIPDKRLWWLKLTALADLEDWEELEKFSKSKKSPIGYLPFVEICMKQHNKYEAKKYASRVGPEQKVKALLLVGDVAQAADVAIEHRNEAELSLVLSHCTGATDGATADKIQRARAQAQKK

Variants of: B1
Test Context: with vps16_human VPS16, Q9H269

# Mut, effect of a mutation on the interaction
data = [
    ("Y438D", "disrupting interaction"),
    ("I441K", "disrupting interaction"),
    ("K429D", "disrupting interaction"),
]
